target: Mitogen-activated protein kinase kinase kinase kinase 1 (Homo sapiens, UniProt Q92918); assay: Inhibition of recombinant human HPK1 expressed in baculovirus infected insect cells using SRKS1 peptide as substrate incubated for 15 mins followed by substrate addition and measured after 3 hrs by TR-FRET assay
Sequence (Q92918 whole entry): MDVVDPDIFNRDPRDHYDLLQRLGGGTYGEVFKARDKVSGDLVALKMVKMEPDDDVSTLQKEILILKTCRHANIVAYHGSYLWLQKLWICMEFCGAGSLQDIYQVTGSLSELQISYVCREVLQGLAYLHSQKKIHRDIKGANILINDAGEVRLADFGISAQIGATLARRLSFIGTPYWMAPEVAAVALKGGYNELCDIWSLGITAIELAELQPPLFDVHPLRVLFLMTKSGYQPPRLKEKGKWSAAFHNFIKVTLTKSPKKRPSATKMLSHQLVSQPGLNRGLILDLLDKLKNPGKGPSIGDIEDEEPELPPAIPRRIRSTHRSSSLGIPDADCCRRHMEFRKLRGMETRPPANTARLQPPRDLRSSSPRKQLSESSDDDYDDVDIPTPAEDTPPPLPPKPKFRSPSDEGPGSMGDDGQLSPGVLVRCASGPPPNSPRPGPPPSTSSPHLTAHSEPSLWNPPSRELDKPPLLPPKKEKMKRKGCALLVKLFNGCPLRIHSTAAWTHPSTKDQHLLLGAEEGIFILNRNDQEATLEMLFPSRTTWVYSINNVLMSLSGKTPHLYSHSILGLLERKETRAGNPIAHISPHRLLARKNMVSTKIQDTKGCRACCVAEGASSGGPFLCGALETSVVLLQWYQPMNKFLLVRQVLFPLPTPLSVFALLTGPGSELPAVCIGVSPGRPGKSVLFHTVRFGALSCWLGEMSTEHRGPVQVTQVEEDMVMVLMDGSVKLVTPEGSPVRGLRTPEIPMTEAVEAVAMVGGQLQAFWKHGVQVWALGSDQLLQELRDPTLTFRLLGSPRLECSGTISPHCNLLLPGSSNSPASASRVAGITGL
measured-parameter: IC50

INSERT INTO measurements (molecule, result) VALUES
  ('Cc1c(-c2cc(F)c3c(c2)/C(=C/c2ccc(C4CC4)[nH]2)C(=O)N3)cnc2c1NCCO2', '0.05 nM');
